Entries annotated with measured EC50
Tested on: NNRTI-resistant HIV-1 strain 12243
PROCEDURE_TEXT: microbe, parasite or virus in culture
Format: cell-based
SETTINGS: Human immunodeficiency virus 1, TZM-bl
QUANTITY: EC50 (µM)

O=C1Nc2ccc(Cl)cc2[C@@](C#CC2CC2)(C(F)(F)F)O1 [EFV, efavirenz, reference compound] = 15.5
Cc1ccnc2c1NC(=O)c1cccnc1N2C1CC1 [NVP, nevirapine, reference compound] = 23.9
Cc1[nH]c2ccc(-c3nnc(SCC(=O)N4CCCC4)o3)cc2c1C = 0.18
Cc1[nH]c2ccc(-c3nnc(SCC(=O)N4CCCCC4)o3)cc2c1C = 0.06

###

Test system: proviral DNA integrated to the host chromosome
PROCEDURE_TEXT: Integrated proviral DNA, nested Alu-PCR in A3.01 cells
Type: cell-based, HIV-1
SETTINGS: compounds 5 µM, 40 h after infection
QUANTITY: nested Alu-PCR band for integrated proviral DNA

Cc1[nH]c2ccc(-c3nnc(S(=O)(=O)C(C)C(=O)N4CCCC4)o3)cc2c1C (centres unmarked) = observed
Cc1[nH]c2ccc(-c3nnc(SCC(=O)N4CCCC4)o3)cc2c1C = observed
C[C@@H]1CCO[C@H]2Cn3cc(C(=O)NCc4ccc(F)cc4F)c(=O)c(O)c3C(=O)N12 [DTG, dolutegravir, reference compound] = not detected
Cc1[nH]c2ccc(-c3nnc(SCC(=O)N4CCCCC4)o3)cc2c1C = observed
O=C1Nc2ccc(Cl)cc2[C@@](C#CC2CC2)(C(F)(F)F)O1 [EFV, efavirenz, reference compound] = not detected

###

PROCEDURE_TEXT: Cell viability of TZM-bl cells (PrestoBlue)
Assay type: cell-based
SETTINGS: human
QUANTITY: CC50 at 48 h (µM)

Cc1[nH]c2ccc(-c3nnc(SCC(=O)N4CCCC4)n3CCc3ccccc3)cc2c1C [Compound 31] = 55.3
Cc1[nH]c2ccc(-c3nnc(SCC(=O)N4CCCC4)o3)cc2c1C [Compound 13] = 47.1
Cc1[nH]c2ccc(-c3nnc(SCC(=O)N4CCCCC4)n3C)cc2c1C [Compound 28] = 36.8
Cc1[nH]c2ccc(-c3nnc(SC(C)C(=O)N4CCCC4)o3)cc2c1C (centres unmarked) [Compound 14] = 57.7
Cc1[nH]c2ccc(-c3nnc(SC(C)C(=O)N4CCCCC4)n3CCc3ccccc3)cc2c1C (centres unmarked) [Compound 30] = 22.6

###

Test system: NRTI-resistant HIV-1 strain 7407
PROCEDURE_TEXT: microbe, parasite or virus in culture
Type: cell-based
SETTINGS: Human immunodeficiency virus 1, TZM-bl
pEC50: −log10 of the molar value.
QUANTITY: pEC50

Cc1[nH]c2ccc(-c3nnc(SCC(=O)N4CCCC4)o3)cc2c1C = 6.72
Cc1[nH]c2ccc(-c3nnc(SCC(=O)N4CCCCC4)o3)cc2c1C = 7.15

###

Test system: HIV-1NL4-3
PROCEDURE_TEXT: HIV-1 infectivity in TZM-bl cells (F-Luc)
Type: cell-based
SETTINGS: Human immunodeficiency virus 1, TZM-bl, 48 h, Table S1, WT virus, TZM-bl, fivefold serial dilutions, MOI 1, 48 h; read-out: EC50
Recorded EC50 by entry
QUANTITY: EC50 (nM)

Cc1[nH]c2ccc(-c3nnc(SCC(=O)N4CCCCC4)o3)cc2c1C [Compound 9] = 130
Cc1ccnc2c1NC(=O)c1cccnc1N2C1CC1 [NVP, nevirapine, reference compound] = 60
Cc1[nH]c2ccc(-c3nnc(SCC(=O)N4CCCC4)o3)cc2c1C [Compound 13] = 200
Cc1cn([C@H]2C[C@H](N=[N+]=[N-])[C@@H](CO)O2)c(=O)[nH]c1=O [AZT, zidovudine] = 110
Nc1nc(NC2CC2)c2ncn([C@H]3C=C[C@@H](CO)C3)c2n1 [ABC, abacavir] = 12200
